# Measured On: RBD:ACE2 interaction (Severe acute respiratory syndrome coronavirus 2, UniProt P0DTC2)
# Method: RBD:ACE2 interaction inhibition, NanoBiT kit (Promega)
# Measurement Conditions: RBD from delta SARS-CoV-2, triplicate; read-out: IC50 of RBD:ACE2 binding inhibition
pIC50: −log10 of the molar value.
Measured Property: pIC50

INSERT INTO measurements (smiles_entry, measured_property, number) VALUES
  ('O=C(c1ccccc1)[C@H]1[C@@H]2c3ccccc3C=CN2[C@@H](C(=O)c2ccccc2)[C@@H]2c3ccccc3C=CN12', 'pIC50', 4.49),
  ('O=C(c1ccc(Cl)cc1)[C@H]1[C@@H]2c3ccccc3C=CN2[C@@H](C(=O)c2ccc(Cl)cc2)[C@@H]2c3ccccc3C=CN12', 'pIC50', 4.98);
